system: Corn rootworm larvae; test: whole plant or invertebrate; details: soil, 120 h, read-out: Corn Rootworm Mortality,%
Parameter mortality at 2.5 ppm: see the listing below.
Answer in %, number only, no unit symbol.

> print(dat)
                                   compound          study.target         assay.readout  reported.result
1  CCCCCCSC(C)CSP(=O)(OCC)SCCC (centres unmarked) [Example 36]  Corn rootworm larvae  mortality at 2.5 ppm                0
2  CCCSP(=O)(OCC)SCC(C)SCC (centres unmarked) [Example 33]  Corn rootworm larvae  mortality at 2.5 ppm              100
3  CCCSC(C)CSP(=O)(OCC)SCCC (centres unmarked) [Example 34]  Corn rootworm larvae  mortality at 2.5 ppm              100
4  CCCSP(=O)(OCC)SCC(C)SC (centres unmarked) [Example 32]  Corn rootworm larvae  mortality at 2.5 ppm              100

Next:
Prompt: What reported mortality at 2.5 ppm corresponds to CCCSP(=O)(OCC)SCC(C)SC(C)C (centres unmarked) [Example 35] on Corn rootworm larvae?
Response: 70

Data provenance is patent US4075332A.
